# system: Nuclear factor erythroid 2-related factor 2 (Homo sapiens) (UniProt Q16236)
# assay overview: Activation of Nrf2 in human HaCaT-ARE-Luc cells at 50 uM after 6 hrs by luciferase reporter gene assay relative to control
# Type: cell-based
Classify: 1 (yes) when fold change (FC) is strictly less than 2; 0 (no) when fold change (FC) is not.

INSERT INTO measurements (structure_string, category) VALUES
  ('CC1=CC[C@H](C(C)C)c2cc(C)c(OC(=O)c3ccc(C)cc3)cc21', '0 (no)'),
  ('Cc1ccc2c(c1)C(=O)C(C(C)C)=C[C@@]2(C)O', '1 (yes)'),
  ('COc1ccc(C(=O)Oc2cc3c(C)ccc(C(C)C)c3cc2C)cc1', '1 (yes)'),
  ('Cc1cc2c(C(C)C)ccc(C=O)c2cc1O', '1 (yes)');

Request: Please determine if CC1=CC[C@H](C(C)C)c2cc(C)c(OC(=O)c3cccc([N+](=O)[O-])c3)cc21 is below 2 in terms of fold change (FC).
Response: 1 (yes)

Request: Now this one: CC1=CC[C@H](C(C)C)[C@H]2C=C(C(=O)O)CC=C12
Response: 1 (yes)

* * *

# system: Nuclear factor erythroid 2-related factor 2 (Homo sapiens) (UniProt Q16236)
# Sequence (whole entry): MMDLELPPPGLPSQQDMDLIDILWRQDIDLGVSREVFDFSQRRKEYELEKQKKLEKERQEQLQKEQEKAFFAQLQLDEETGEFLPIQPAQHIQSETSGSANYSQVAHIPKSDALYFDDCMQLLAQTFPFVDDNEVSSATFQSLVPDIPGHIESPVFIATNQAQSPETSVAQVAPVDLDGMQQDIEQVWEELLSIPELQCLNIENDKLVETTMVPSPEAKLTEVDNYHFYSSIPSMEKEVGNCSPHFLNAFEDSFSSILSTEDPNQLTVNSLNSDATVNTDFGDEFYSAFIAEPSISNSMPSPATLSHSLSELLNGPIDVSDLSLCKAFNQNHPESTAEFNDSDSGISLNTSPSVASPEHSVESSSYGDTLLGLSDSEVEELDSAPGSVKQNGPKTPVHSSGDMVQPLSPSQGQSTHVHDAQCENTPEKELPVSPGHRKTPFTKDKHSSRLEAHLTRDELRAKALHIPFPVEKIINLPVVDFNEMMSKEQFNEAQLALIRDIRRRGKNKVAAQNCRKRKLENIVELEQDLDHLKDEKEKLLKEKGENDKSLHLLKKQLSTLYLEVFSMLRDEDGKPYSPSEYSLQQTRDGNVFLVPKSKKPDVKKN
# assay overview: Activation of Nrf2 in human HaCaT-ARE-Luc cells at 50 uM after 6 hrs by luciferase reporter gene assay relative to control
# Type: cell-based
readout: fold change (FC)
Answer as a number with no unit attached.

Some solved entries appear below for comparison.
INSERT INTO assay_data (structure_string, readout, reported_value) VALUES
  ('Cc1cc2c(C(C)C)ccc(C)c2cc1OC(=O)Nc1ccccc1', 'fold change (FC)', 1.4),
  ('Cc1cc2c(C(C)C)ccc(C)c2cc1OC(=O)c1ccc([N+](=O)[O-])cc1', 'fold change (FC)', 1.8),
  ('COc1cccc(C(=O)Oc2cc3c(cc2C)[C@@H](C(C)C)CC=C3C)c1', 'fold change (FC)', 1.6),
  ('COc1cccc(C(=O)Oc2cc3c(C)ccc(C(C)C)c3cc2C)c1', 'fold change (FC)', 1.5);

API: the following record is the query input.
Request: Requested read-out: fold change (FC). Entry: Cc1cc2c(C(C)C)ccc(C)c2cc1OC(=O)c1cccc(Cl)c1
Response: 1.7

* * *

# Test system: PC-3
# assay overview: Antiproliferative activity against human PC3 cells after 48 hrs by sulforhodamine B assay
# Type: functional, cell-based
# assay context: PC-3, 48 h
Measured IC50, listed per entry.
Please give a number only; it is taken to be in µM.

INSERT INTO assay_data (structure_string, reported_value) VALUES
  ('Cc1cc2c(C(C)C)ccc(C)c2cc1OC(=O)c1ccc(Cl)cc1', 44),
  ('CC1=CC[C@H](C(C)C)c2cc(C)c(OC(=O)Nc3ccccc3)cc21', 7.93),
  ('Cc1ccc(C(=O)Oc2cc3c(C)ccc(C(C)C)c3cc2C)cc1', 23.7),
  ('Cc1cc2c(C(C)C)ccc(C)c2cc1OC(=O)Nc1ccccc1', 8.62),
  ('CC1=CC[C@H](C(C)C)c2cc(C)c(OC(=O)c3ccc([N+](=O)[O-])cc3)cc21', 42.5),
  ('Cc1cc2c(C(C)C)ccc(C)c2cc1OC(=O)c1ccc(C(F)(F)F)cc1', 34),
  ('Cc1cc2c(C(C)C)ccc(C)c2cc1OC(=O)c1ccc([N+](=O)[O-])cc1', 17.6),
  ('Cc1cccc(C(=O)Oc2cc3c(C)ccc(C(C)C)c3cc2C)c1', 47.1);

Proceeding to the next molecule to report its IC50.
Request: Param readout= IC50; system= PC-3; entry= COc1ccc(C(=O)Oc2cc3c(cc2C)[C@@H](C(C)C)CC=C3C)cc1 ; returns value.
Response: 32.2

* * *

Recorded measurements of pIC50, one per entry
# Tested on: HCT-15
# assay overview: Antiproliferative activity against human HCT15 cells after 48 hrs by sulforhodamine B assay
# Type: functional, cell-based
# assay context: HCT-15, 48 h
// pIC50 here means minus log10 of the molar concentration (mol/L)

INSERT INTO measurements (structure_string, reported_value) VALUES
  ('CC1=CC[C@H](C(C)C)c2cc(C)c(OC(=O)c3ccc(C)cc3)cc21', 4.39),
  ('Cc1cc2c(C(C)C)ccc(C)c2cc1OC(=O)c1ccc(Cl)cc1', 4.47),
  ('CC1=CC[C@H](C(C)C)c2cc(C)c(OC(=O)Nc3ccccc3)cc21', 7.52);

Request: Quick one: pIC50 of Cc1ccc(C(=O)Oc2cc3c(C)ccc(C(C)C)c3cc2C)cc1 ?
Response: 4.92

Request: Now this one: Cc1cc2c(C(C)C)ccc(C)c2cc1OC(=O)c1ccc([N+](=O)[O-])cc1
Response: 5.10

Request: Also need CC1=CC[C@H](C(C)C)c2cc(C)c(OC(=O)c3ccc([N+](=O)[O-])cc3)cc21 , thanks.
Response: 4.25

Request: What do you get for Cc1cc2c(C(C)C)ccc(C)c2cc1OC(=O)Nc1ccccc1 ?
Response: 5.41

* * *

# system: Nuclear factor erythroid 2-related factor 2 (Homo sapiens) (UniProt Q16236)
# assay overview: Activation of Nrf2 in human HaCaT-ARE-Luc cells at 50 uM after 6 hrs by luciferase reporter gene assay relative to control
# Type: cell-based
readout: fold change (FC)
Write the value as a bare number.

The following compounds have reported results that may help.
INSERT INTO assay_data (structure_string, readout, reported_value) VALUES
  ('Cc1cccc(C(=O)Oc2cc3c(C)ccc(C(C)C)c3cc2C)c1', 'fold change (FC)', 1.8),
  ('Cc1cc2c(C(C)C)ccc(C)c2cc1OC(=O)c1ccc(C(F)(F)F)cc1', 'fold change (FC)', 1.7),
  ('CC1=CC[C@H](C(C)C)c2cc(C)c(OC(=O)c3ccccc3)cc21', 'fold change (FC)', 6.6),
  ('Cc1ccc(C(=O)Oc2cc3c(C)ccc(C(C)C)c3cc2C)cc1', 'fold change (FC)', 1.8),
  ('CC(C)[C@H]1CC[C@@](C)(O)c2ccc(C(=O)O)cc21', 'fold change (FC)', 1.7);

Proceeding to the next compound to report its fold change (FC).
Request: fold change (FC) for CC1=C2CCC(C(=O)O)=C[C@@H]2[C@@H](C(C)C)CC1 ?
Response: 1.4

* * *

# system: Signal transducer and activator of transcription 3 (Homo sapiens)
# assay overview: Inhibition of IFNgamma-stimulated STAT3 (unknown origin) activation expressed in human HeLa cells at 50 uM after 6 hrs by luciferase reporter gene assay relative to control
# Format: cell-based
readout: inhibition (%)
Supply the numeric figure in %, leaving out any unit text.

INSERT INTO assay_data (structure_string, reported_value) VALUES
  ('CC1=C[C@](O)(C(C)C)C(=O)c2cc(C)c(O)cc21', 2.2),
  ('CC1=CC[C@H](C(C)C)c2cc(C)c(OC(=O)c3ccc(Cl)cc3)cc21', 2.7);

Request: // fetch Signal transducer and activator of transcription 3 (Homo sapiens) inhibition for CC1=CC[C@H](C(C)C)c2cc(C)c(O)cc21
Response: 2.1

* * *

# system: Nuclear factor erythroid 2-related factor 2 (Homo sapiens)
# assay overview: Activation of Nrf2 in human HaCaT-ARE-Luc cells at 50 uM after 6 hrs by luciferase reporter gene assay relative to control
# Assay type: cell-based
# key: entry, value: fold change (FC)
No unit in the answer, only the number.

Known results for compounds:
INSERT INTO results (structure_string, readout, reported_value) VALUES
  ('CC1=CC[C@H](C(C)C)c2cc(C)c(OC(=O)c3ccc([N+](=O)[O-])cc3)cc21', 'fold change (FC)', 8.5),
  ('CC1=CC[C@H](C(C)C)c2cc(C)c(OC(=O)c3ccc(Cl)cc3)cc21', 'fold change (FC)', 1.3),
  ('Cc1cc2c(C(C)C)ccc(C)c2cc1OC(=O)c1ccc(Cl)cc1', 'fold change (FC)', 1.7),
  ('COc1c(C(C)C)cc(C)c2ccc(C)cc12', 'fold change (FC)', 1.9);

Request: What value of fold change (FC) on Nuclear factor erythroid 2-related factor 2 (Homo sapiens) does CC1=CC[C@H](C(C)C)c2cc(C)c(OC(=O)Nc3ccccc3)cc21 have?
Response: 1.6
